targetSystem: T1, Dimeric human CD48-mFc (human)
T1 construct: the whole entry is the construct; also called hCD48-mFc
T1 chain: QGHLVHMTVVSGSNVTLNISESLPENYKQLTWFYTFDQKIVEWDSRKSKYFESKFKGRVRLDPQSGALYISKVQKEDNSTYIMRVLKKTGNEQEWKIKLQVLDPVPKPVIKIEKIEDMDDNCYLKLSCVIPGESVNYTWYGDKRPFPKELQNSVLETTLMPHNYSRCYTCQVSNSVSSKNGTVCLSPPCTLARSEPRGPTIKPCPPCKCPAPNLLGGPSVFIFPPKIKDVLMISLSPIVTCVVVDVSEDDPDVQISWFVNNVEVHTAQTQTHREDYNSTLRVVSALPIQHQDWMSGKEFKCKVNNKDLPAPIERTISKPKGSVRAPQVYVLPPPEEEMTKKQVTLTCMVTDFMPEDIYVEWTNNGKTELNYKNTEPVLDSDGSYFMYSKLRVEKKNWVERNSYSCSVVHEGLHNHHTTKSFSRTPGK
testDetails: SPR (Biacore), antibody captured by anti-Fc, CD48 in solution, 37 C
Description: Measurements were conducted on a T100-2 BIACORE™ instrument (Biacore Life Sciences division of GE Healthcare, Piscataway, N.J.). […] The soluble CD48 was applied to the flow cell in separate injections at different concentrations, and kinetic association (kₐ) and dissociation (kd) rate constants were determined by fits to the kinetic binding data using Biacore software. […]
pKd: −log10 of the molar value.
measurementLabel: pKd

| binder | measurementLabel | observedResult |
| --- | --- | --- |
| H4H1707N (antibody, V domains shown, Human IgG4 Fc (H4H)) VH: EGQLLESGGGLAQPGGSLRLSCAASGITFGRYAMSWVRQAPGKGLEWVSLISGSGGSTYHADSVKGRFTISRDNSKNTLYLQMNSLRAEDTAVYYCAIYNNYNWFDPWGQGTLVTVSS VL: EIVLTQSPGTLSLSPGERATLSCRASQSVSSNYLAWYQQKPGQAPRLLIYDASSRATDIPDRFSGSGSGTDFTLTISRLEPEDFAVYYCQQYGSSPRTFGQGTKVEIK | pKd | 10.18 |
| H4H1774P (antibody, human IgG4, V domains shown, Human IgG4 Fc (H4H)) VH: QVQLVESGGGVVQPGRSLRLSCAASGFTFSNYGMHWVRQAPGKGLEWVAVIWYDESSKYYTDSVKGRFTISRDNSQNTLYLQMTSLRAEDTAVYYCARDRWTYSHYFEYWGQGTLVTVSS VL: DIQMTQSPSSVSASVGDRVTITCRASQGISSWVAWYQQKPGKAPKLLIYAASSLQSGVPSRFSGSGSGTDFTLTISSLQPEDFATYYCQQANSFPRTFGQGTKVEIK | pKd | 10.36 |
| H4H1771P (antibody, human IgG4, V domains shown, Human IgG4 Fc (H4H)) VH: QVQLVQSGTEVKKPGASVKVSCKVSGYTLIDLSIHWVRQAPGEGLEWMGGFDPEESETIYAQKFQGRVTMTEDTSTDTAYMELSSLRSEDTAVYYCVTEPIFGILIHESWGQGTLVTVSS VL: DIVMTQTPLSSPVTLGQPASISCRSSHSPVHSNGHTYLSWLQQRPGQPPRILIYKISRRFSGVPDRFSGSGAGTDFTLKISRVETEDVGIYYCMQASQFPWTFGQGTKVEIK | pKd | 10.78 |
| H4H1781P (antibody, human IgG4, V domains shown, Human IgG4 Fc (H4H)) VH: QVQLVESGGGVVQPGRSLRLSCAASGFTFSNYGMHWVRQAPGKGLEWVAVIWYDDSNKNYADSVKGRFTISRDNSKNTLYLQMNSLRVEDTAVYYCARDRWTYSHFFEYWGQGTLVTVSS VL: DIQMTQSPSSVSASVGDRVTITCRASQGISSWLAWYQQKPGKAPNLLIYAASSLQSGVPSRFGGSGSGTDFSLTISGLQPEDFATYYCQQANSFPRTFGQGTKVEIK | pKd | 10.22 |
| H3M1766N (antibody, V domains shown, Human variable domains, mouse Fc (H3M); also called H2M1766N) VH: EVQLVESGGGLAQPGGSLRLSCAASGFTFSSYEMNWVRQAPGKGLEWVSYITTSGSTIYYADSVKGRFTMSRDNAKKSLYLEMNSLRAEDTAVYYCAREECTNGVCYKDYQYYGMDVWGQGTTVTVSS VL: DIQMTQSPSSVSASVGDRVTITCRASQNINTWLAWYQQKPGKVPKLLIYAASSLQSGVPSRFSGSGSGTDFTLTISSLQPEDFATYYCQQANSFPLTFGGGTKVEIK | pKd | 9.47 |
| H4H1713N (antibody, V domains shown, Human IgG4 Fc (H4H)) VH: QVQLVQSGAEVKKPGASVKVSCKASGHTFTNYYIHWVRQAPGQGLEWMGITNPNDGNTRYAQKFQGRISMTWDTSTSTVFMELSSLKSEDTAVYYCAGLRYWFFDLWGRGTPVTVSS VL: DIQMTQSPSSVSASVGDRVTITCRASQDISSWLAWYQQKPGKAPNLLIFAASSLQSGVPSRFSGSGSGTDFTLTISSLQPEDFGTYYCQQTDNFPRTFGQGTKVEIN | pKd | 10.44 |
